Test system: Hepatitis C virus subtype 1a
Test: Selectivity ratio of EC90 for NS5A L31V mutant in HCV genotype 1a to EC90 for NS5A in HCV genotype 1a
readout-name: Selectivity ratio

compound="COC(=O)N[C@H](C(=O)N1CCC[C@H]1c1ncc(-c2cc(F)c3c(c2)OC(c2ccc4c(c2)OCCC4)n2c-3cc3cc(-c4cnc([C@@H]5C[C@H]6C[C@H]6N5C(=O)[C@@H](NC(=O)OC)C(C)C)[nH]4)ccc32)[nH]1)C(C)C (stereo partly drawn)" readout_name="Selectivity ratio" value_reported=2

# returns recorded Selectivity ratio (system: Hepatitis C virus subtype 1a) for COC(=O)N[C@H](C(=O)N1CCC[C@H]1c1ncc(-c2cc(F)c3c(c2)OC(c2ccc4c(c2)OCCC4)n2c-3cc3cc(-c4cnc([C@@H]5CCCN5C(=O)[C@@H](NC(=O)OC)C(C)C)[nH]4)ccc32)[nH]1)C(C)C (stereo partly drawn)
1

Would you kindly repeat that for COC(=O)N[C@H](C(=O)N1CCC[C@H]1c1ncc(-c2cc(F)c3c(c2)OC(c2ccccc2)n2c-3cc3cc(-c4cnc([C@@H]5C[C@H]6C[C@H]6N5C(=O)[C@@H](NC(=O)OC)C(C)C)[nH]4)ccc32)[nH]1)C(C)C (stereo partly drawn) ?
26
